Assignment: determine reported pIC50 for the given compounds.
# Test system: HCT116 WT cells
# Measurement Protocol: HCT116 WT cell proliferation / viability (CellTiter-Glo, 6 days)
# Format: cell-based
# Conditions Used: Homo sapiens, HCT-116, 144 h, HCT116 WT cells, 6 days, CellTiter-Glo; read-out: HCT-116 WT IC50
pIC50: −log10 of the molar value.

The measured pIC50 that CCN(Cc1ccc(C(F)(F)F)cn1)C(=O)c1ccc2nc(N)c3c(c2c1)COC3C (stereo not shown) showed for HCT116 WT cells is < 5.00

// assay HCT116 WT cells, entry CC(C)N(Cc1ccc(C(F)(F)F)nn1)C(=O)c1cc2c3c(c(N)nc2cn1)[C@@H](C)OC3 , pIC50 value = 5.43

Entry Nc1nc2ccc(C(=O)N(Cc3ccc(C(F)(F)F)nn3)C3COC3)cc2c2c1COC2 ; assay system HCT116 WT cells; pIC50 recorded at < 4.30

Assay HCT116 WT cells, sample CN(C(=O)c1cc2c3c(c(N)nc2cn1)COC3)C(c1ccc(C(F)(F)F)cn1)C1CC1 (racemic) , pIC50 read: < 4.30
